assay: Inhibition of Hedgehog signaling in mouse C3H10T1/2 cells assessed as downregulation of Ptch mRNA expression after 24 hrs by RT-PCR analysis; assay type: cell-based; details: C3H 10T1/2, 24 h
quantity: IC50 (nM)
Give the quantity in nM, number only.

molecule	IC50, nM
CC(C)CCC[C@@H](C)[C@H]1CC[C@H]2[C@@H](OC(=O)c3cccc(N)c3)CCC[C@]12C	4500

## Task Could you tell me which IC50 is on file for CC(C)CCC[C@@H](C)[C@H]1CC[C@H]2[C@@H](O)CCC[C@]12C ?
## Result 2800

## Task Next up: CC(C)CCC[C@@H](C)[C@H]1CC[C@H]2[C@@H](OC(=O)c3cccc(O)c3)CCC[C@]12C
## Result 1100

## Task Next up: C=C1CC[C@H](O)C/C1=C/C=C1\CCC[C@]2(C)[C@@H]([C@H](C)CCCC(C)C)CC[C@@H]12 [CHOLECALCIFEROL]
## Result 2900
